test system: HDAC (extract from HeLa cells containing HDAC activity); experiment: HDAC colorimetric activity assay kit (BIOMOL), HeLa cell extract; assay type: biochemical, human; conditions: HDAC activity, HeLa extract
pIC50: −log10 of the molar value.
Metric: pIC50

>>> observed("Nc1ccccc1NC(=O)c1ccc(CNc2ccc(F)cc2)cc1 [CS02100019]")
"< 4.30"

Ref: patent US7244751B2
